- ASSAYED_SYSTEM: EGFR del19/T790M (Homo sapiens (Human), UniProt P00533, DEL746-750/T790M)
- Sequence (P00533 other isoform, or with tags, fused parts or gaps T790M/del 1-668/del 746-750 limits assumed): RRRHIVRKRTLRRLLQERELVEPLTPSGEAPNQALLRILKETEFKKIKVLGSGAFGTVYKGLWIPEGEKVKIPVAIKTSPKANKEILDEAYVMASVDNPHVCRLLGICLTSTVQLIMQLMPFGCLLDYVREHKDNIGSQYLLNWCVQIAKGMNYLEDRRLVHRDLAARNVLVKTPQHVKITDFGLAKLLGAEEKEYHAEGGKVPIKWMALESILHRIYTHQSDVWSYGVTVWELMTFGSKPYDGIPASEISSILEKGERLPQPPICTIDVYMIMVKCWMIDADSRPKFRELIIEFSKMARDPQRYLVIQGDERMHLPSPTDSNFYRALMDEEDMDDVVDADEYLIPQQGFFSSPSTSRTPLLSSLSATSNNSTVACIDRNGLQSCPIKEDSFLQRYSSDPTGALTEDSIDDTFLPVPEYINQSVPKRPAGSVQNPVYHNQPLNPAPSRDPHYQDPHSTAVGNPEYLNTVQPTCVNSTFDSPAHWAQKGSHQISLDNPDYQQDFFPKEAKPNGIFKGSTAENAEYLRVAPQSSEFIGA
- EXPERIMENTAL_DETAILS: HTRF enzyme assay, EGFR del19/T790M
- MEASUREMENT_SETUP: recombinant enzyme
QUANTITY_MEASURED: IC50 (µM)

Consider the worked cases shown below.
1) COc1cc(N2CCNCC2)ccc1Nc1ncc(Cl)c(Nc2ccccc2NS(N)(=O)=O)n1: 0.004
2) COc1cc(N2CCC(N3CCCC3)CC2)ccc1Nc1ncc(Cl)c(Nc2ccccc2NS(C)(=O)=O)n1: 0.0083
3) COc1cc(N2CCN(C3CCN(C)CC3)CC2)ccc1Nc1ncc(Cl)c(Nc2ccccc2NS(C)(=O)=O)n1: 0.018

A. COc1cc(C2CCN(C3CCN(C)CC3)CC2)ccc1Nc1ncc(Cl)c(Nc2ccccc2NS(C)(=O)=O)n1
B. COc1cc(C2CCNCC2)ccc1Nc1ncc(C(F)(F)F)c(Nc2ccccc2NS(C)(=O)=O)n1
Task: Field: lower recorded IC50 (choose A or B ) Pick one and reply with its label.
Result: B
(B: 0.013 µM, A: 0.078 µM)
